Tested on: OVCAR-4 ovarian
Assay: NCI-60 one-dose screen, 48 h (100 = growth as untreated, 0 = no growth, -100 = all killed)
Conditions: 10 µM unless noted
Procedure: Growth inhibition of the OVCAR-4 human tumor cell line is measured as a screen for anti-cancer activity. Cells are grown in 96 well plates and exposed to the test compound for 48 hours. Compounds are tested at a single concentration, which is 10^-5 M for most compounds. The reported endpoint is percent growth (GI% or GIPRCNT), where numbers from 0 - 100% represent growth inhibition, and numbers from -100% - 0 represent cell death. For example, a value of 40 represents 60% growth inhibition. […]
Compounds without any hit were thinned out: in the full panel of roughly 83,000, 20% have a hit.
Measured quantity: growth (%)
Quick reminder: number only, in %, skip the unit.

Compound	Tested target	Unit text	Test value
CC(C)N(CCOC(=O)Nc1ccccc1Cl)C(C)C	OVCAR-4 ovarian	%	119
CCCCCCCC/C=C\CCCCCCCC(=O)Oc1cccc2cccnc12	OVCAR-4 ovarian	%	128

API: the following record is the query input.
Give the reported growth for this compound. Cc1cc(NS(=O)(=O)c2ccccc2)c(OS(=O)(=O)c2ccccc2)cc1C
106

###

Tested on: NCI/ADR-RES ovarian
Assay: NCI-60 one-dose screen, 48 h
Conditions: 10 µM unless noted
Compounds without any hit were thinned out: in the full panel of roughly 83,000, 20% have a hit. Calls of active or inactive are those of the source. Rule for the calls: active = growth percent below 10; inactive = the rest.
Field 'call' accepts active, inactive

// below: answered compounds
Compound	Class
CO[C@H]1/C=C/O[C@@]2(C)Oc3c(C)c(O)c4c(c3C2=O)C(=O)C(/C=N/N(c2ccccc2)c2ccccc2)=C(NC(=O)/C(C)=C\C=C\[C@H](C)[C@H](O)[C@@H](C)[C@@H](O)[C@@H](C)[C@H](OC(C)=O)[C@@H]1C)C4=O	active
NS(=O)(=O)c1cnccc1-n1ccc(=O)c(S(N)(=O)=O)c1	inactive

Outcome logged for COc1ccc(Oc2nc(Nc3ccc(N4CCOCC4)nc3)ncc2NC(=O)c2cc(OC)cc(OC)c2)cc1 in this assay:
inactive

Outcome logged for C=C1c2c(C)nn(-c3ccc(O)cc3)c2N(C)C23C[C@@H]1C1(C)c4c(C)nn(-c5ccc(O)cc5)c4N(C)C(C)(C[C@H]12)C3 (stereo partly drawn) in this assay:
inactive

Outcome logged for Cc1nc(Nc2ccccn2)sc1C(=O)/C=C/c1ccc(Br)cc1 in this assay:
inactive

Outcome logged for O=C1/C(=C/c2ccc([N+](=O)[O-])cc2)COc2ccc(O)c(O)c21 in this assay:
inactive

Outcome logged for O=C1N(c2ccccc2)C(=S)N[C@]12[C@H](c1ccccc1)C1CCCN1[C@]21C(=O)NC2C=CC(Cl)=C[C@H]21 (stereo partly drawn) in this assay:
inactive

Outcome logged for C=C(C)[C@@H]1CC[C@@]2(C(=O)O)CC[C@]3(C)C(CCC4[C@@]5(C)CCC(OS(=O)(=O)c6ccccc6)C(C)(C)C5CC[C@]43C)C12 (stereo partly drawn) in this assay:
inactive

###

System: 786-0 renal
Experiment: NCI-60 one-dose screen, 48 h (100 = growth as untreated, 0 = no growth, -100 = all killed)
Details: 10 µM unless noted
About 83,000 compounds went through this panel and 20% of them were active in at least one assay; those are over-represented in the sample as a whole.
Listed next: entries and their corresponding growth.
Quick reminder: number only, in %, skip the unit.

Study these solved cases before continuing.
Smiles entry	Tested target	Unit text	growth
Nc1c(-c2nc3ccccc3c(=O)[nH]2)nnn1-c1ccc(Cl)cc1	786-0 renal	%	82.2
CCc1cc(Cc2cc(CC)cc(C(C)(C)C)c2O)c(O)c(C(C)(C)C)c1	786-0 renal	%	23.6

API: the following record is the query input.
Give the reported growth for this compound. Clc1ccc(-c2nnc(-c3ccco3)o2)cc1
86.8
